Values compiled from ChEMBL document CHEMBL2429747.

# Test system: HMNC
# procedure_text: Immunomodulatory activity in wild type C57BL/6 mouse HMNC cells assessed as reduction in IL-17 secretion at 25 nM after 72 hrs by ELISA
# Format: functional, cell-based
Calls of active or inactive are those of the source. The rule behind the calls is not given here.
Outcome codes: T (active), F (inactive)

CCCCCCCCCCCCCCCCCCCCCCCCCC(=O)N[C@@H](CO[C@H]1O[C@H](CO)[C@H](O)[C@H](O)[C@H]1O)[C@H](O)[C@H](O)c1cnn(CCCCc2ccc(CCC)cc2)c1 T
CCCCCCCCCCCCCCCCCCCCCCCCCC(=O)N[C@@H](CO[C@H]1O[C@H](CO)[C@H](O)[C@H](O)[C@H]1O)[C@H](O)[C@H](O)c1cnn(CCCCCCCc2ccccc2)c1 T
CCCCCCCCCCCCCCCCCCCCCCCCCC(=O)N[C@@H](CO[C@H]1O[C@H](CO)[C@H](O)[C@H](O)[C@H]1O)[C@H](O)[C@H](O)c1cnn(CCCCCc2ccc(CC)cc2)c1 T
CCCCCCCCCCCCCCCCCCCCCCCCCC(=O)N[C@@H](CO[C@H]1O[C@H](CO)[C@H](O)[C@H](O)[C@H]1O)[C@H](O)[C@H](O)c1cnn(CCCc2ccc(CCCC)cc2)c1 T
CCCCCCCCCCCCCCCCCCCCCCCCCC(=O)N[C@@H](CO[C@H]1O[C@H](CO)[C@H](O)[C@H](O)[C@H]1O)[C@H](O)[C@H](O)c1cnn(CCCCCCc2ccc(C)cc2)c1 T
CCCCCCCCCCCCCCCCCCCCCCCCCC(=O)N[C@@H](CO[C@H]1O[C@H](CO)[C@H](O)[C@H](O)[C@H]1O)[C@H](O)[C@H](O)c1cnn(Cc2ccc(CCCCCC)cc2)c1 T
CCCCCCCCCCCCCCCCCCCCCCCCCC(=O)N[C@@H](CO[C@H]1O[C@H](CO)[C@H](O)[C@H](O)[C@H]1O)[C@H](O)[C@H](O)c1cnn(CCc2ccc(CCCCC)cc2)c1 F
